Assay: Metabolic stability of exemplified compounds (Example 4)
Assay type: in vitro ADME
Details: Rat liver microsomes
QUANTITY: Extr (EH)

[[record]]
molecule = "COC/C=C/CNc1oc(-c2cc(Cl)cc(Cl)c2Cl)nc1C#N [Compound 45]"
quantity = "Extr (EH)"
val = "** (“**” 50-100%)"

[[record]]
molecule = "N#Cc1nc(-c2cc(Cl)cc(Cl)c2Cl)oc1NCC#CCOCc1ccccc1 [Compound 43]"
quantity = "Extr (EH)"
val = "** (“**” 50-100%)"

[[record]]
molecule = "COCCOCCOCCNc1oc(-c2cc(Cl)cc(Cl)c2Cl)nc1C#N [Compound 50]"
quantity = "Extr (EH)"
val = "** (“**” 50-100%)"

[[record]]
molecule = "COCCNc1oc(-c2cc(Cl)cc(Cl)c2Cl)nc1C#N [Compound 39]"
quantity = "Extr (EH)"
val = "** (“**” 50-100%)"

[[record]]
molecule = "N#Cc1nc(-c2cc(Cl)cc(Cl)c2Cl)oc1NCCCCCO [Compound 22]"
quantity = "Extr (EH)"
val = "* (“*” <50%)"


Ask: Value lookup for Extr (EH); key = N#Cc1nc(-c2cc(Cl)cc(Cl)c2Cl)oc1NCCOCCO [Compound 28]
Result: * (“*” <50%)

Ask: Same thing, different molecule: N#Cc1nc(-c2cc(Cl)cc(Cl)c2Cl)oc1NC/C=C/COCc1ccccc1 [Compound 47]
Result: ** (“**” 50-100%)

Ask: Same thing, different molecule: N#Cc1nc(-c2cc(Cl)cc(Cl)c2Cl)oc1NCCCO [Compound 16]
Result: * (“*” <50%)

Ask: Same thing, different molecule: CC(C)OCCOCCNc1oc(-c2cc(Cl)cc(Cl)c2Cl)nc1C#N [Compound 49]
Result: ** (“**” 50-100%)
